Form field: apparent KD of K4 kissing-loop reporter (one value per entry).
# Test system: K4 kissing-loop RNA reporter
# assay-explanation: apparent KD of K4 kissing-loop reporter; higher = weaker reporter binding
# condition-label: Eterna round: R107; input ligand: FMN 200 uM

[
  {
    "sequence": "GAUUACAACAGAGUGAUGUUCUGACUUUCUCGAGGACCGGUACGGCCGCCACUCGUUAAACAAAGUGGUUUGCCAAGGCCAACUU",
    "apparent KD of K4 kissing-loop reporter": "139 nM"
  },
  {
    "sequence": "GGGCUGGUGCUAGGAUAUGCGAUGAAUGCUCAGGAAACCUUGAGUCCGCAGUGAUGUUGCGGCACCGCAGAAGGAGCUUAGGCUC [Esbequ]",
    "apparent KD of K4 kissing-loop reporter": "146 nM"
  },
  {
    "sequence": "UUUUAAAUGUCUGAUACCAGAGAAAAUAUAUGUAGUGAUGUUAUAUACAAAUUAAAUAAGCUCCCUUGGCAGCAGUAUUAAUUUU [AstrosExc-TheB#10]",
    "apparent KD of K4 kissing-loop reporter": "628 nM"
  },
  {
    "sequence": "UGAUACCAGACGGCCGCCACUGCACCAGUCAAUGACUGAGUGUAGUAAUGCUCAGUGAUGUUGAGUAGGACCGGGUCUGGUAUCU [Mod of Eli's TrypBX 8 v1]",
    "apparent KD of K4 kissing-loop reporter": "141 nM"
  },
  {
    "sequence": "AAUACGAAGCAGUGAUGUUGCUUAUGAGAAGGAGCGCACGAAAGUGCAGGUAGGUCGCUCAGCCAAGUGGACGAAAACGUCCACA [whbob_SS_Arginine_A_sa108]",
    "apparent KD of K4 kissing-loop reporter": "96.4 nM"
  },
  {
    "sequence": "CGCGCGGGUUUGAGAGGGUUCGCGCGAAGUGAGGAUAUUUAGGGAGAAAGAAGGCACUAUAAAAUAUAGUGAUGUUAUAUAAGGG [SSFMNA.H]",
    "apparent KD of K4 kissing-loop reporter": "699 nM"
  },
  {
    "sequence": "CCAGGACGAUGAGGAUGAUGAAUUACUGAAGGAGCGCAUAUGGUUGCAGGUAGGUCGCGGUGAACAAGUAUAGUGAUGUUAUGCC [SSArgA.V]",
    "apparent KD of K4 kissing-loop reporter": "704 nM"
  },
  {
    "sequence": "UUAGAGAUCUCAGGAUAUCAGUGAUGUUGUAAUCCAGAUCUGAGAUAGAAUUCUAUCUCAGAUCAAUGAGAAGGGAGAUCUCAUU [AK4.2 Exc FMN B]",
    "apparent KD of K4 kissing-loop reporter": "306 nM"
  },
  {
    "sequence": "CGCCGCAAGGCGGUCCUGCCCACUCCGGAAGGAGCGCCCGCAAGGGCAGGUAGGUCGCCGGAGUGAUGUUCCGGUGGCAGGACCG [#2 Exclusion - Arginine A Attempt #4 (Inspired by Omei)]",
    "apparent KD of K4 kissing-loop reporter": "477 nM"
  },
  {
    "sequence": "GGGAGAAGUGCGGCCGCCACUGAGAAAGAAGAAGAAUAUAGUGAUGUUAUAUAGGAAAGGAAGAACAGGACCGGGCAUAAGAGGG [SSTryptB.A]",
    "apparent KD of K4 kissing-loop reporter": "104 nM"
  },
  {
    "sequence": "UACUUAUAUAUCAACUUAAAUUAUUCAGAAGGAGCGUGAUCAUUCACAGGUAGGUCGCUGAACUAGUGAUGUUAGUUUUAAUUUU [JR_Nu_ExcArginiA_Sub023]",
    "apparent KD of K4 kissing-loop reporter": "67.9 nM"
  },
  {
    "sequence": "UGGCGGACGAUCCGGAGUGAUGUUCCGGAUACCAGCAGAAGAGCCUGCCCUUGGCAGCCGUGCGACGCUGGGAGAGUCCGGCGUC [Requered]",
    "apparent KD of K4 kissing-loop reporter": "104 nM"
  },
  {
    "sequence": "AUGUAUAUCUCAGGAUAUAUAUGUGUGUGGUGUAUACAUAGUGAUGUUGUGUAUAUCCACAUAUGUAUAGAAGGGAGAUGUGCAU [Skye_SS_FMNB]",
    "apparent KD of K4 kissing-loop reporter": "76.3 nM"
  },
  {
    "sequence": "AGGAUCACGUCAGUGAUGUUGACAAGAGAUACCAGAGACGAAAGUCUCCCUUGGCAGCUCAUUGUGAUCCGUGACAAAGGUCACA [Omei KL hio A SS C v2]",
    "apparent KD of K4 kissing-loop reporter": "353 nM"
  }
]

---

# Tested on: MS2 coat protein
# assay-explanation: apparent KD of MS2 coat protein, switch ON state; designed switch direction (-1 OFF switch, 1 ON switch): 1; higher = weaker reporter binding
# condition-label: FMN input: 0 or 200 uM; Eterna round: R93 (includes R88 designs)
# if value of apparent KD of MS2 coat protein reaches 30 nM, tag Yes; if it stays below, tag No

[
  {
    "sequence": "AUAAAUAAAAUAGAGGAUAUCCAAAACAAAACAUGAGGAUCACCCAUGUAAAAGAAAAUAAAAUGGGAGAAGGCUACAAAUAAAU [SS2 M 3]",
    "label-class": "No"
  },
  {
    "sequence": "AAAUAAAGGACUGAGGAUAUACCACAUGAAACAUGAGGAUCACCCAUGUUGAAAAACAAAGGGUGGUAGAAGGUAGUCCACAAAC [Same State 2.5a ( so lets mod hyphema)]",
    "label-class": "No"
  },
  {
    "sequence": "AUAAAACAUGAGGAUCACCCAUGUAGAAAUAUGGGAGGAUAUACUAGAUCGAAAGAUCUAGUAGAAGGCCUUAAAG [JL Mod of Eli 3]",
    "label-class": "Yes"
  },
  {
    "sequence": "GGAUACAUACAGAAGGAUAUGAGAACAAAGACAUGAGGAUCACCCAUGUACAAAAGGUGGAACAAUCAGAAGGUCUAAACAACAAA [Club and Ball]",
    "label-class": "Yes"
  },
  {
    "sequence": "UUUAGGAAGAGAGAGGAUAUCCAAAGGAAAACAUGAGGAUCACCCAUGUAAAAGGUAGGAAAUUGGGAGAAGGCUCAAGAGAGAG [salish99-ss2-078]",
    "label-class": "No"
  },
  {
    "sequence": "GGGAGACAUGAGGAUCACCCAUGUGAGAAGAGGCGAGGAUAUCGAAAGAAAGAAGAGAAACGAGAAGGCGCGAGUU [salish99-SS1-054]",
    "label-class": "Yes"
  },
  {
    "sequence": "AAGAAACAUGAGGAUCACCCAUGUAAGAUAAACACAGGAUAUGCGAAAAGAACAAAAGAAGCAGAAGGGUGAAGAA [Mat - Same State 1 - Tesla mod - D145]",
    "label-class": "No"
  }
]

---

# System: K4 kissing-loop RNA reporter;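 note: bound reporter read as fluorescence of individual clusters on recovered sequencing chips by microscopy, with normalized cluster intensities fitted with a binding model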
# assay-explanation: apparent KD of K4 kissing-loop reporter; higher = weaker reporter binding
# condition-label: Eterna round: R107; input ligand: theophylline 20 uM
So basically: apparent KD of K4 kissing-loop reporter at 200 nM or higher? That is True. Lower than 200 nM? That is False.

[
  {
    "sequence": "ACUAUGGAGUGAUGUUCCCGCGUCAUUGAUACCAGAAUGUAUACCUUCCCUUGGCAGCAAUUCAUCGCACGUAUACUUAUACAAG [theeternabot_sameState_KL_Theo_A_31]",
    "system-tested": "K4 kissing-loop RNA reporter",
    "label-class": "True"
  },
  {
    "sequence": "AACUGCUAAGAGGUUAAGCACGUCAUUAUGAAGGAUAUAGAAUUCACUAGAAGGUCAUGUGCCCUGAGUGAUGUUCAGAUAGGCG [theeternabot_sameState_KL_FMN_A_25]",
    "system-tested": "K4 kissing-loop RNA reporter",
    "label-class": "True"
  },
  {
    "sequence": "AAGGGCGGAACUUCCUCGCCGGAUAGAGAUACCAGCCCAGCAAAGGGCCCUUGGCAGCUCACUGACCUCAGUGAUGUUGAGGUUC [Riesrevere]",
    "system-tested": "K4 kissing-loop RNA reporter",
    "label-class": "True"
  },
  {
    "sequence": "GCCGUAGAUGGAAGGAGCGUGGUCUAGAAGCACAAGUGAUGUUUGUGGUAACCUUCUGACCCACAGGUAGGUCGCCAUCUACGGC",
    "system-tested": "K4 kissing-loop RNA reporter",
    "label-class": "False"
  },
  {
    "sequence": "CCAGCAAAGCUGGUCGCCAAACAACGGGCACGAGGACCGGUACGGCCGCCACUCGUGAGGACGAGUGAUGUUCGUUCACGGGCGA",
    "system-tested": "K4 kissing-loop RNA reporter",
    "label-class": "True"
  },
  {
    "sequence": "AACUCUCAGGCACGCGAGUGAUGUUCGCGGCGAGGACCGGUACGGCCGCCACUCGCGCCUGAGAGAGGUUAUCAAAGAUAGCCAA [whbob_SS_tryp_A]",
    "system-tested": "K4 kissing-loop RNA reporter",
    "label-class": "False"
  },
  {
    "sequence": "AGUGACGAGUGAUGUUCGUGAACACUGGAUACCAGCAGUCUUAUCUGCCCUUGGCAGCCAACGGGAACCGAAUGUUAAGACCUGU [theeternabot_exclusion_KL_Theo_A_4]",
    "system-tested": "K4 kissing-loop RNA reporter",
    "label-class": "False"
  },
  {
    "sequence": "AUUAAUUUCAGAGGAUAUGCUUAAUUGAUUAAAUAUAAUCUAUUAUGCAGUGAUGUUGCAUUUUUUGCAGAAGGCUGAUUUAUAA [JR_SSFMNB_Sub017]",
    "system-tested": "K4 kissing-loop RNA reporter",
    "label-class": "True"
  },
  {
    "sequence": "AAGUACACGAUAGUGUACACCUAGUGAUGUUAGGAUAUGCAGAUAUGCAGAAGGAGCAAGUCAUCUGACAAUAGUCGGAUGACAA [FmnAX 7 #OpenEnded #K4Early]",
    "system-tested": "K4 kissing-loop RNA reporter",
    "label-class": "False"
  },
  {
    "sequence": "UGAUAGGACAGAAGGAGCGGUAGUGAUGUUGCCAAAAGUAUAAGGUGUCAAAAGACACCCUGCCAGGUAGGUCGCUGUCCUAUCU",
    "system-tested": "K4 kissing-loop RNA reporter",
    "label-class": "False"
  }
]
